Quick reference: self-cleavage of the listed items.
B1: Twister Ribozyme (parent)
chain: AACACUGCCAAUGCCGGUCCCAAGCCCGGAUAAAAGUGGAGGGGGCGG

Variants of: B1
Assay: self-cleavage, relative activity (ratio to wild type); higher = more cleavage; co-transcriptional

Variant notation	self-cleavage
G45C C46U	0.544
G28C G41C	0.217
A23U G44C	0.578
U37A G39A	0.173
G29A U37G	0.395
A22C C27G	0.101
A1G C19U	0.345
G39A A40U	0.161
A2U C5A	0.13
U12A G29A	1.11
C19U G44C	0.608
C3A A34G	0.1
C5A C9A	0.123
A2U A10C	0.449
A2C G17U	0.0456
G7A U12A	0.441
U12A G45A	1.09
A11U U31A	0.918
G24U G39A	0.0948
U6A A35G	0.807
G36U G48U	0.454
C3G U31A	0.57
U37A G41C	0.178
C14U G47U	1
U18G A34U	0.0388
C14A G45C	0.58
C20A G41C	0.0888
C27A G47A	0.238
U6C C14A	0.504
C9A U37G	0.33
G24U G39C	0.0634
